# target.or.system: IL-1R/IL-1RacP (Homo sapiens, UniProt Q9NPH3)
# Construct: endogenous in cells; host or cells: A549 carcinoma cells
# Sequence (Q9NPH3 21-570): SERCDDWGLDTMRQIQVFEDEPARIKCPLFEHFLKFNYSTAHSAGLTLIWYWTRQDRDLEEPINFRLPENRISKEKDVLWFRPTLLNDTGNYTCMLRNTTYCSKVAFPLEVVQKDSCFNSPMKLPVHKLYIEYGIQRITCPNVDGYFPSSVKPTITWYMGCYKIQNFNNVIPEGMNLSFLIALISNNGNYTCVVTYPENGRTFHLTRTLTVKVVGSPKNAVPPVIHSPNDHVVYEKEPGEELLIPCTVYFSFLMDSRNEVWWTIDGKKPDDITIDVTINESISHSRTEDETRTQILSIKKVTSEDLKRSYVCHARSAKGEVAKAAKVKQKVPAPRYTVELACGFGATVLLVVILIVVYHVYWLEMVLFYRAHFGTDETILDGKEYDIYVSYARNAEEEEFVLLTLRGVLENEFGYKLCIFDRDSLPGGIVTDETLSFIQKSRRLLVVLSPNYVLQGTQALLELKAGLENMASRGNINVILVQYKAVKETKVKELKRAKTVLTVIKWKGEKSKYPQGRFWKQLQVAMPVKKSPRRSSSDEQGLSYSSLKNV
# assay.overview: IL-1 induced proliferation in A549 carcinoma cells, tritiated thymidine method
# Assay type: cell-based
# setup.conditions: IL-1 10 ng/ml or 1 ng/ml; peptides 10^−6 to 10^−4 M
# Experimental: FIG. 9 graphically illustrates results of proliferation assays in carcinome A549 cells in presence of IL-1 (10 ng/ml-Panel A) (1 ng/ml-Panel B) and various concentrations of the peptides API-101, API-103 and API-106; The proliferation effect of IL-1 was measured in A549 carcinoma cells in the presence of peptides API101; API103 and API106 and of IL-1 (10 ng/ml-Panel A) and (1 ng/ml-Panel B) pursuant to the incorporated tritiated thymidine method. […]
No end group written: not given here.
result.type: EC50 (nM)

APRYTVELA [API-101] : 1000
MKLPVHKLY [API-103] : 1000
